- System: human GLP-1 receptor (human, UniProt P43220 24-463)
- Procedure Text: cell-based or functional assay
*1 amine or outer side, *2 acyl side, *3 side chain or, on linkers, in order; H or OH if unused. Where no end group is shown, it is not given here. Side-chain parts run from the residue outwards. [ ]: non-standard residue; d: D form. The star is where a group is joined. C20 diacid = O=C(O)CCCCCCCCCCCCCCCCCCC(=O)*; γGlu = O=C(O)[C@H](CCC(=O)[*:2])N[*:1]; εLys = N[C@@H](CCCCN[*:1])C(=O)[*:2]; Aib = CC(C)(N)C(=O)O
Decision: EC50, CreLuc reporter, 100% hP beneath 7 nM gives fulfilled; EC50, CreLuc reporter, 100% hP meeting or exceeding 7 nM gives not fulfilled.

[
  {
    "Binder": "YXEGTFTSDYSIXLDKQAQXAFIRHLINKXTRQRY (Aib at 2, 20, 30; aMeL at 13; Lys29 epsilon-amino acylated with C20DA-gGlu-gGlu-gGlu-gGlu-gGlu-gGlu-eLys; C-terminal amide) [Compound 22]",
    "Class": "fulfilled"
  },
  {
    "Binder": "YXEGTFTSDYSIXLDKIAQXAFVRHLINKXTRQRY (Aib at 2, 13, 20, 30; Lys29 epsilon-amino acylated with C18DA-gGlu-gGlu-gGlu-gGlu-gGlu-gGlu-eLys; C-terminal amide) [Compound 33]",
    "Class": "fulfilled"
  },
  {
    "Binder": "Y[Aib]EGTFTSDYSI[Aib]LEKQAQ[Aib]AFVRHLINK([εLys-γGlu-γGlu-γGlu-γGlu-γGlu-C20 diacid])[Aib]TRQRY-NH2 [Compound 59]",
    "Class": "not fulfilled"
  },
  {
    "Binder": "YXEGTFTSDYSIXLEKEAQXAFVRHLINKXTRQRY (Aib at 2, 13, 20, 30; Lys29 epsilon-amino acylated with C20DA-gGlu-gGlu-gGlu-gGlu-gGlu-gGlu-eLys; C-terminal amide) [Compound 28]",
    "Class": "not fulfilled"
  }
]
